Form field: HUVEC survival, Maximum Inhibition at 50 nM (% Inhibition), N = 1 (one value per entry).
Target: human KDR (human, UniProt P35968 20-1356)
Sequence (P35968 20-1356): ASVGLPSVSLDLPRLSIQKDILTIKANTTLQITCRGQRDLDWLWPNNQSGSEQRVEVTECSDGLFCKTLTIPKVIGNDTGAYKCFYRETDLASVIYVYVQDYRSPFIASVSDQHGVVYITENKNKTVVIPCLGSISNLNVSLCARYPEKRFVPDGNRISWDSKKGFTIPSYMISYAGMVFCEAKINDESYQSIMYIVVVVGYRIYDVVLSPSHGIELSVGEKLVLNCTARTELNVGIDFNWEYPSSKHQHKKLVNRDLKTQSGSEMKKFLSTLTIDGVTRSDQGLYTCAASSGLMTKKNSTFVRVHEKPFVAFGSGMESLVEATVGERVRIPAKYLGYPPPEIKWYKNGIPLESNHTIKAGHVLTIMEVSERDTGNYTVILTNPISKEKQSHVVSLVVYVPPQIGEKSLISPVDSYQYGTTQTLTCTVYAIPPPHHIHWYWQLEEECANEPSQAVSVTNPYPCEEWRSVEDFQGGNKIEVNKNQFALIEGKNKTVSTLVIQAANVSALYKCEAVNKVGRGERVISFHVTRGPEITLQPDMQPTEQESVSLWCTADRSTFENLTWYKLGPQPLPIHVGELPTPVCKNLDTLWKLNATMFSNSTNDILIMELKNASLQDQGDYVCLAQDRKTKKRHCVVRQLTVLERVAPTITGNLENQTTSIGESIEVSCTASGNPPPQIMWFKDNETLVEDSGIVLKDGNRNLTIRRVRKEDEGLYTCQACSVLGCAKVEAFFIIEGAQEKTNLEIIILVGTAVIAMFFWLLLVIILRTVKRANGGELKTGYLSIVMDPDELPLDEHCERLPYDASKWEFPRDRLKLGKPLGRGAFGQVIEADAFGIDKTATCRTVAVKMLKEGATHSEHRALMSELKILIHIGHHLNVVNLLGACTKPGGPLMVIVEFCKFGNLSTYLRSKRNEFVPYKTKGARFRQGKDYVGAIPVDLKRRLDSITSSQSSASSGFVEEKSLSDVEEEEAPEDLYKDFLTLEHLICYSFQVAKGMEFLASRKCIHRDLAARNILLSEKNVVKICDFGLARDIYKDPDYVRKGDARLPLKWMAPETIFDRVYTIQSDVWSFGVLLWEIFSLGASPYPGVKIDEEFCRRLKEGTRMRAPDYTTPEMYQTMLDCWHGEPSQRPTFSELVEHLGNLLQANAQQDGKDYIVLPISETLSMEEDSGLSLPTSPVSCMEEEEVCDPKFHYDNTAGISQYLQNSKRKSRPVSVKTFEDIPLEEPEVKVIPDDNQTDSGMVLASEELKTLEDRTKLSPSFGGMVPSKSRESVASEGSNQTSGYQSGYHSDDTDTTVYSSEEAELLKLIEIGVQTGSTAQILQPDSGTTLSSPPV
Assay: cell-based or functional assay
Please give a number only; it is taken to be in %.

Use the examples below as a reference point.
22B8 (antibody, V domains shown, Fully human monoclonal antibody from a XenoMouse hybridoma (IgG2 or IgG4 strain), purified) VH: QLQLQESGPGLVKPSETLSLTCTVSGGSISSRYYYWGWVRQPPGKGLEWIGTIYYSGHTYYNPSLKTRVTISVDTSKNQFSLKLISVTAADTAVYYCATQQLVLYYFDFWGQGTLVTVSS VL: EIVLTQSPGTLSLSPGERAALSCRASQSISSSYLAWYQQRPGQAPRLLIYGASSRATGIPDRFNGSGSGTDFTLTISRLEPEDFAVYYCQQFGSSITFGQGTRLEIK	80
33E1 (antibody, V domains shown, Fully human monoclonal antibody from a XenoMouse hybridoma (IgG2 or IgG4 strain), purified) VH: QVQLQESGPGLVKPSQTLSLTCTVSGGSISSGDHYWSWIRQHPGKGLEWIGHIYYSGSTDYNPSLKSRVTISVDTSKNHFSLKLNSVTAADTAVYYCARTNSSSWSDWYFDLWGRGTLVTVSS VL: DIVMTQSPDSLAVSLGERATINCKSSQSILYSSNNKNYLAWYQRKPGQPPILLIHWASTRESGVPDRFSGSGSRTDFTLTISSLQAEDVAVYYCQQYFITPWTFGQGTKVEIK	107
33B1 (antibody, V domains shown, Fully human monoclonal antibody from a XenoMouse hybridoma (IgG2 or IgG4 strain), purified) VH: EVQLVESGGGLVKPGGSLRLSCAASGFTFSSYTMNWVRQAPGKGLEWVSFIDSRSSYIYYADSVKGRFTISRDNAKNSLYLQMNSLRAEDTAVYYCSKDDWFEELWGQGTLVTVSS VL: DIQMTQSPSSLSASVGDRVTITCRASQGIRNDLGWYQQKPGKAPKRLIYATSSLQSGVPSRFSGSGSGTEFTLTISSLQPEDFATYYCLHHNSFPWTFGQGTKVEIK	55
21H6 (antibody, V domains shown, Fully human monoclonal antibody from a XenoMouse hybridoma, purified) VH: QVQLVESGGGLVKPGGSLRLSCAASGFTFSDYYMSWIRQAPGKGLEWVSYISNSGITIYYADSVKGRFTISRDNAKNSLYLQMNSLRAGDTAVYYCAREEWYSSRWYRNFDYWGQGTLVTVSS VL: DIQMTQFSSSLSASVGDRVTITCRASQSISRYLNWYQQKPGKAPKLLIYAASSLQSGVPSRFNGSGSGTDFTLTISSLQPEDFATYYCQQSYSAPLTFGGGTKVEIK	96

Data request: Assign HUVEC survival, Maximum Inhibition at 50 nM (% Inhibition), N = 1 to the following record: 32G7 (antibody, V domains shown, Fully human monoclonal antibody from a XenoMouse hybridoma (IgG2 or IgG4 strain), purified) VH: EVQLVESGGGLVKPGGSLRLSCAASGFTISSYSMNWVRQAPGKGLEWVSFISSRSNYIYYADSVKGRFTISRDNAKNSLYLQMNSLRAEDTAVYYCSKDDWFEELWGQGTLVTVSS VL: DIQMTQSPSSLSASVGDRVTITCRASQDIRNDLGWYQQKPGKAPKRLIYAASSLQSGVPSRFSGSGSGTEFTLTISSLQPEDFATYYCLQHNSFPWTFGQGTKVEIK
Data returned: 73
